System: SNB-19 CNS
Assay: NCI-60 one-dose screen, 48 h (100 = growth as untreated, 0 = no growth, -100 = all killed)
Conditions: 10 µM unless noted
Procedure: Growth inhibition of the SNB-19 human tumor cell line is measured as a screen for anti-cancer activity. Cells are grown in 96 well plates and exposed to the test compound for 48 hours. Compounds are tested at a single concentration, which is 10^-5 M for most compounds. The reported endpoint is percent growth (GI% or GIPRCNT), where numbers from 0 - 100% represent growth inhibition, and numbers from -100% - 0 represent cell death. For example, a value of 40 represents 60% growth inhibition. […]
This is part of a sample that, as a whole, favours compounds with a hit. Of some 83,000 tested, about 20% had one in any assay.
Measurement label: growth (%)
Form entry: value (%) — number only.

Per the records, this molecule ( CCOC(=O)CCN(CC(C)C)C(=S)Nc1ccccc1 ) has growth equal to 99.9

Per the records, this molecule ( c1ccc2cc(Cn3c(-c4cccc5ccccc45)[n+](Cc4ccc5ccccc5c4)c4c5ccccc5c5ccccc5c43)ccc2c1 ) has growth equal to -82.7

Per the records, this molecule ( Cc1cc2nc3c4cc([N+](=O)[O-])ccc4n(CCN(C)C)c3nc2cc1C ) has growth equal to 8.53

Per the records, this molecule ( COc1cc2c(cc1OC)C(=O)/C(=C/c1cc(C)c(O)c(C)c1)S2 ) has growth equal to 38.7

Per the records, this molecule ( CCOC(=O)c1ccc2c(c1)ncn2-c1ccc(NC(=O)Nc2cccc(C)c2)cc1 ) has growth equal to 49.8

Per the records, this molecule ( CN(C)c1ccc(Nc2c3ccccc3nc3cc(NC(=O)CCN4CCCC4)ccc23)cc1 ) has growth equal to -7.13

Per the records, this molecule ( CCOC(=O)c1cc(C(=O)c2ccc(OC)cc2)n2ccc(/C=C/c3cc[n+](CC(=O)c4ccc(OC)cc4)cc3)cc12 ) has growth equal to 31.3

Per the records, this molecule ( COc1ccc(C(=O)c2cc(OC)c(OC)c(OC)c2)cc1O ) has growth equal to 28.5

Per the records, this molecule ( COc1ccc(N2CCN(c3ccc(NC4=C(Cl)C(=O)c5ncccc5C4=O)cc3)CC2)cc1 ) has growth equal to 29.4

* * *

Test system: HOP-92 NSCLC
Experiment: NCI-60 one-dose screen, 48 h (100 = growth as untreated, 0 = no growth, -100 = all killed)
Conditions: 10 µM unless noted
About 83,000 compounds went through this panel and 20% of them were active in at least one assay; those are over-represented in the sample as a whole. Activity calls are given as the source filed them. How the source made its calls: active means growth percent below 10; inactive means the rest.
Measurement label: growth

Per the records, this compound ( COc1ccc(/C=C(\C#N)n2nc3cccc(F)c3n2)cc1 ) has growth equal to 96.1% (inactive)

Per the records, this compound ( CC(Sc1nc2sc3c(c2c(=O)n1-c1ccc(Cl)cc1)CCCC3)C(=O)Nc1nc(-c2ccc(Br)cc2)cs1 (stereo not given) ) has growth equal to 110% (inactive)

Per the records, this compound ( C/C(=N\NC(=O)CSc1nc2ccccc2c(=O)n1CCc1ccc(S(N)(=O)=O)cc1)c1ccccn1 ) has growth equal to 67.5% (inactive)

Per the records, this compound ( O=C1Nc2cc(-c3ccc(NS(=O)(=O)c4ccccc4)cc3)ccc2/C1=C/c1ccc[nH]1 ) has growth equal to 95.7% (inactive)

Per the records, this compound ( COc1cc(NCCCCCNC(C)(C)C)c2ncccc2c1 ) has growth equal to 79.4% (inactive)

Per the records, this compound ( O=C(NO)c1ccc(-n2nc(-c3ccccc3)c3ccccc32)cc1 ) has growth equal to 62.9% (inactive)

Per the records, this compound ( CC(=O)CCC(=O)OCc1cc(=O)c(O)co1 ) has growth equal to 105% (inactive)

Per the records, this compound ( CCN1C(=O)/C(=C/C(=O)OC)S/C1=N\NC(=O)c1cc2ccc1/C=C\c1ccc(cc1)/C=C\2 ) has growth equal to 81.6% (inactive)

Per the records, this compound ( Cc1ccc(S(=O)(=O)NNC(=O)/C(=C\c2ccc(Cl)cc2)c2nc3ccccc3s2)cc1 ) has growth equal to 87.3% (inactive)

Per the records, this compound ( Nc1c(C(=O)Nc2cccc3cnccc23)sc2nc3c(cc12)C(=O)CCC3 ) has growth equal to 80.5% (inactive)

The reported measurements were obtained from PubChem BioAssay (NCI).
